Measured values drawn from ChEMBL document CHEMBL3797106 for this set.

Below is a list of entries, each paired with its recorded EC50 value.
Biological target: Sphingosine 1-phosphate receptor 3 (Homo sapiens)
Sequence (Q99500 whole entry): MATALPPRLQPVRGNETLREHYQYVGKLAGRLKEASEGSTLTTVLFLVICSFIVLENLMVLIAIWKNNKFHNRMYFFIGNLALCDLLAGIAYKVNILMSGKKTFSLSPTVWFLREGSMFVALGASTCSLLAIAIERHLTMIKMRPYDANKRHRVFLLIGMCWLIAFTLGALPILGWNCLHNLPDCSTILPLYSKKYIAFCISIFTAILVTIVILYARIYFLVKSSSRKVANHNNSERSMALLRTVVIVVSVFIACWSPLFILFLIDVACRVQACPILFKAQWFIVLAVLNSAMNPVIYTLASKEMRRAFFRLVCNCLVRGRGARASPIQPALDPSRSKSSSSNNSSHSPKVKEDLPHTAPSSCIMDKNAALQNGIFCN
Assay: Agonist activity at human S1P3 receptor expressed in EDG3-Ga15-bla HEK293T cell membranes after 45 mins by [35S]-GTPgammaS binding assay
Give the value in µM but do not write µM after it.

{"columns": ["structure-smiles-string", "EC50, µM"],
 "data": [
  ["O=C(O)C1CN(Cc2ccc(-c3noc(-c4noc(-c5ccccc5)c4-c4ccccc4)n3)cc2)C1", 0.13],
  ["O=C(O)C1CN(Cc2ccc(-c3noc(-c4cc(-c5ccccc5)on4)n3)cc2)C1", 6.3],
  ["CCc1c(-c2nc(-c3ccc(CN4CC(C(=O)O)C4)cc3)no2)noc1-c1ccccc1", 12],
  ["CC(C)c1c(-c2nc(-c3ccc(CN4CC(C(=O)O)C4)cc3)no2)noc1-c1ccccc1", 5.1],
  ["O=C(O)C1CN(Cc2ccc(-c3noc(-c4noc(-c5ccccc5)c4C(F)(F)F)n3)cc2)C1", 4.1],
  ["CC(F)(F)c1c(-c2nc(-c3ccc(CN4CC(C(=O)O)C4)cc3)no2)noc1-c1ccccc1", 1.9],
  ["O=C(O)C1CN(Cc2ccc(-c3noc(-c4onc(-c5ccccc5)c4C(F)(F)F)n3)cc2)C1", 1.6],
  ["CCCc1c(-c2nc(-c3ccc(CN4CC(C(=O)O)C4)cc3)no2)noc1CC(C)C", 0.85]
]}

Okay, now this compound:
Reported EC50 for CC(C)Cc1onc(-c2nc(-c3ccc(CN4CC(C(=O)O)C4)cc3)no2)c1C(F)(F)F : what is it?
6.2
